Quick reference: pIC50 of the listed items.
target: CDK4/human cyclin D1 (Homo sapiens); assay: Determination of activity of CDK4 kinase (Caliper mobility shift); details: 25 μM ATP, 5 nM enzyme, 25° C. 6 hours; read-out: CDK4/CycD1 IC50
Sequence (P11802 whole entry): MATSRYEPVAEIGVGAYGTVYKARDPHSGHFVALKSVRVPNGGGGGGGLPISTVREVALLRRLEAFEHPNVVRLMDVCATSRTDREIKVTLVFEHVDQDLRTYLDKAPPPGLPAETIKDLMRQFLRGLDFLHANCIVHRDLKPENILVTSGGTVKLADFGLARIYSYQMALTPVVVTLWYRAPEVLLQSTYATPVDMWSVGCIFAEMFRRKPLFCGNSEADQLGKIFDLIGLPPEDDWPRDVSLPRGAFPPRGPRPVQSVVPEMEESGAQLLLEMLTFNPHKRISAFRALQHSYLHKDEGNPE
Sequence (P24385 whole entry partner): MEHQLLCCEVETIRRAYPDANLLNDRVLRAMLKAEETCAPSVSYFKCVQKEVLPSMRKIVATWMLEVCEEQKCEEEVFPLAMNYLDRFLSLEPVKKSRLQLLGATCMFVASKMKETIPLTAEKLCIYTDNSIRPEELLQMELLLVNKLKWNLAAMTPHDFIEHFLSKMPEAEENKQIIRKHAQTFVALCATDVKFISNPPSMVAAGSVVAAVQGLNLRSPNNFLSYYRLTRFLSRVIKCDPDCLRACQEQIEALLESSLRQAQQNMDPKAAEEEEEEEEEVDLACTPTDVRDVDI
pIC50 here is simply -log10 of the concentration when that concentration is written in mol/L.

Cc1nc2c(F)cc(-c3nc(Nc4ccc(CN5CCN(CCO)CC5)cn4)ncc3F)cc2n1C(C)C [Compound 1979] : 9.08
Cc1nc2c(F)cc(-c3nc(Nc4ccc(N5CCN(CC(C)O)CC5)cn4)ncc3F)cc2n1C(C)C (stereo not shown) [Compound 1987] : 8.92
CC(C)n1c(CF)nc2c(F)cc(-c3nc(Nc4ccc(CN5CCC(N(C)C)CC5)cn4)ncc3F)cc21 [Compound 1975] : 8.81
CCN1CCN(Cc2ccc(Nc3ncc(F)c(-c4cc(F)c5nc(CO)n(C(C)C)c5c4)n3)nc2)CC1 [Compound 1994] : 9.17
Cc1nc2c(F)cc(-c3nc(Nc4ccc(CN5CCC(N(C)CCO)CC5)cn4)ncc3F)cc2n1C(C)C [Compound 1964] : 8.85

Could you share which pIC50 value was measured for CC(C)n1c(CF)nc2c(F)cc(-c3nc(Nc4ccc(N5CCC(N(C)CCO)CC5)cn4)ncc3F)cc21 [Compound 1990] ?
8.81

Could you share which pIC50 value was measured for Cc1nc2c(F)cc(-c3nc(Nc4ccc(N5CCN(CCO)CC5)cn4)ncc3F)cc2n1C(C)C [Compound 1986] ?
8.92
